Target: T1, human PTK7 protein (extracellular sequence of human PTK7 with C-terminal 6×His tag) (human, UniProt Q13308 31-704)
T1 construct: extracellular domain; Expressed transiently in HEK293 cells; also called human PTK7-His; human PTK7-His protein
T1 sequence: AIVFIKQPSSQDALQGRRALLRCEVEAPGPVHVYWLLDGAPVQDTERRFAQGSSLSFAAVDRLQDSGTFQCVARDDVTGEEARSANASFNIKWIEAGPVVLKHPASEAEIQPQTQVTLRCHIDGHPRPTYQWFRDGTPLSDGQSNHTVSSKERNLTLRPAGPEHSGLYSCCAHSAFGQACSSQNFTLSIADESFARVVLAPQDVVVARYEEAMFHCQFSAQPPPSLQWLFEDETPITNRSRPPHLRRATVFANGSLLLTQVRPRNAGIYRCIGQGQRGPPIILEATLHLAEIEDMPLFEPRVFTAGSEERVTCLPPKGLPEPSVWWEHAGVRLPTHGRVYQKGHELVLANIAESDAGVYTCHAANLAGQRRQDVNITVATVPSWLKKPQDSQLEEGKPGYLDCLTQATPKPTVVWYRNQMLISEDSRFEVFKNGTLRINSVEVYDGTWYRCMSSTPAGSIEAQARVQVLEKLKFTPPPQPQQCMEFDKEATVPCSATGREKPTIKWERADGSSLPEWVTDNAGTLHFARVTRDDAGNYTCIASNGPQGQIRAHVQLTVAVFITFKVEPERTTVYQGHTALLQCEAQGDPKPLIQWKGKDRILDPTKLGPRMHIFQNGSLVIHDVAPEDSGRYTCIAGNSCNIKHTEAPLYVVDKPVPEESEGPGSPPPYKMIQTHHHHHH
Assay: BLI (ForteBio), antibody on Protein A sensor, human PTK7-His 200-3.125 nM, 1:1 global fit
MEASURE NAME: Kd (nM)
Give bare numbers, in nM.

Could you tell me which Kd is on file for 19C2HZ (anti-human PTK7 humanized antibody) (antibody, human IgG1, kappa, V domains shown, Human IgG1 heavy chain constant region and human Kappa light chain constant region) VH: QVTLKESGPTLVKPTQTLTLTCTFSGFSLSTSGMGINWIRQPPGKALEWLALIWWDDDKYYNPSLKNRLTITKDTSKNQVVLTMTNMDPVDTATYYCARSLITTAPSDYWGQGTLVTVSS VL: DIQMTQSPSSLSASVGDRVTITCKASQNVGTAITWYQQRPGKAPKLLIYSASNRYTGVPSRFSGSGSGTDFTLTISNLQPEDLATYFCLQYSDYPLTFGQGTRLEIKR ? 3.7
